The reported numbers originate from patent US20240409645A1.

For each of the binders below, state its OD (PE binding ELISA).
TARGET OR SYSTEM: T1, human IL-2Rγ (common cytokine receptor γ-chain) (human, UniProt P31785 23-262, limits assumed)
T1 construct: Recombinant protein coated on the plate or immobilised on a CM5 chip; also called hu IL-2R; CD132
T1 sequence: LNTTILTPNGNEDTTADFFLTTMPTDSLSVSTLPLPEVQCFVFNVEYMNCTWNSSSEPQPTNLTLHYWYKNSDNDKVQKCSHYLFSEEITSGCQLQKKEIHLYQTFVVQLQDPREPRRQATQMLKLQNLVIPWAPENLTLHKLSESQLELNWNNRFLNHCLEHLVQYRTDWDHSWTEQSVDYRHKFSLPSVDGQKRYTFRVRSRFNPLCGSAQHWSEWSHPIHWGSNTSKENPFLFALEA
ASSAY INFO: PE binding ELISA, periplasmic extract on coated protein
Method: In a binding ELISA, human or mouse IL-2Rα, IL-2Rβ and IL-2Rγ proteins were coated directly on maxisorp microtiter plates overnight at 4° C. Free binding sites were blocked using 4% Marvel in PBS for 1 hour. Next, 1:5 dilution of P.E. in 1% Marvel/PBS were added to wells and incubated for 1 hour. […] Binding specificity was determined based on O.D. at 450 nm values compared to negative controls.
Write the quantity with the unit trailing the number.

Entry 38-MP07A11 (VHH, VHH in periplasmic extract; also called FJ1427_P035MP07A11; clone nr) VHH: QVQLVESGGGLVQAGGSLRLSCAASGRSLSRDAMGWFRQAPGKEREFVAVMSWGGDTFYTDSVEGRFTFSRDNAKNAVYLEMNDLQPEDTAVYYCAAAPTSFATTAYSSSNSYSYWGRGTQVTVSS — recorded OD (PE binding ELISA) = 1.31 OD450 nm

The recorded OD (PE binding ELISA) for entry FJ1427_P035MP04D06 (VHH, VHH in periplasmic extract; also called clone nr) VHH: QVQLVESGGGLVQAGGSLRLSCAASGRALSRLAMGWFRQAPGKEREFVVASSWGDDTFYADSVKGRFTFSRDNAKNTVYLQMNSLQPGDTAVYYCAAAPTSFATTAYSSSNSYAYWGQGTQVTVSS equals 2.1 OD450 nm

So for FJ1427_P035MP04H05 (VHH, VHH in periplasmic extract; also called clone nr) VHH: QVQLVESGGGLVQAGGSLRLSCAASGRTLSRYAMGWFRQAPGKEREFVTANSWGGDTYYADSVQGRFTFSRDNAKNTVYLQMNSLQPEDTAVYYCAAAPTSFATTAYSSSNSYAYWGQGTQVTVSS , the logged OD (PE binding ELISA) turned out to be 1.57 OD450 nm

The binder identified as FJ1427_P035MP04H07 (VHH, VHH in periplasmic extract; also called clone nr) VHH: QLQLVESGGGLVQAGGSLRLSCAASGRTLSRYAMGWFRQAPGKEREFVTANSWGGDTYYADSVQGRFTFSRDNAKNTVYLQMNSLQPEDTAVYYCAAAPTSFATTAYSSSNSYAYWGQGTQVTVSS registered its OD (PE binding ELISA) at 0.919 OD450 nm
